Test system: U251 CNS
Assay: NCI-60 one-dose screen, 48 h (100 = growth as untreated, 0 = no growth, -100 = all killed)
Details: 10 µM unless noted
About 83,000 compounds went through this panel and 20% of them were active in at least one assay; those are over-represented in the sample as a whole. The source made the active and inactive calls. Rule for the calls: active = growth percent below 10; inactive = the rest.
Please provide measured growth for the entries that follow.

# query: growth of entry Cn1c2c(cc(S(=O)(=O)c3ccccc3)c1=O)CCc1c-2cnn1-c1ccc(Cl)cc1 20.7% (inactive)

# query: growth of entry CC(C)(C)c1cc(C[P+](c2ccc(Cl)cc2)(c2ccc(Cl)cc2)c2ccc(Cl)cc2)cc(C(C)(C)C)c1O 85.4% (inactive)

# query: growth of entry CSC1=Nc2c(c(C)c(-c3ccccc3)n2CCCCl)C2=NC(=O)CN12 51.6% (inactive)

# query: growth of entry COC(=O)c1cc(O)c2cc3c(cc2c1-c1cc(OC)c(OC)c(OC)c1)OCO3 42.3% (inactive)

# query: growth of entry CCOC(=O)c1cc(-c2ccc(OC)cc2)[nH]c1NNC(=O)CCOC 101% (inactive)

# query: growth of entry CCC(C)C1NC(=O)C(CCCCN)NC(=O)C(CCCCN)NC(=O)C(CC(C)C)NC(=O)C(CCCCN)NC(=O)C(C(C)CC)NC(=O)C(C(C)C)NC(=O)C(C(C)CC)NC(=O)C(CCCCN)NC(=O)C(CCCCN)NC(=O)C(C)NC(=O)C(CCCCN)NC(=O)C(CC(C)C)NC1=O (stereo not drawn) 6.7% (active)

# query: growth of entry COc1ccccc1Nc1nnc(COc2ccc(CNC(=O)CCCC/C=C/C(C)C)cc2OC)o1 102% (inactive)

# query: growth of entry O=C(/C(Br)=C/c1ccccc1)c1ccccc1 5.38% (active)

# query: growth of entry COc1ccc(-c2nnc(SCC(=O)Nc3ccc(C(=O)/C=C/c4cc(OC)c(OC)c(OC)c4)cc3)n2-c2ccccc2)cc1OC -96.9% [100 µM] (active)

# query: growth of entry CCOC(=O)C1=C(C(F)(F)F)NC(=S)NC1CN1C(=O)c2ccccc2C1=O (stereo not drawn) 102% (inactive)

# query: growth of entry CNCCCNCCCCNCCCN1C(=O)c2ccc3c4c(ccc(c24)C1=O)C(=O)N(CCCNCc1ccccc1OC)C3=O 41.2% (inactive)

# query: growth of entry CNc1nc2ncn(C)c2c(=O)[nH]1 97.3% (inactive)

# query: growth of entry O=C(Nc1ccc(-n2cc(-c3ccncc3)c(-c3ccc(Cl)c(O)c3)n2)cc1)Nc1ccc(Cl)c(C(F)(F)F)c1 -31.4% (active)

# query: growth of entry O=C(/C=C\c1ccc(NCc2ccc(C(=O)O)cc2)cc1)CCl 84.5% (inactive)

# query: growth of entry CCOC(=O)C1=C(C(F)(F)F)NC(=O)NC1CN1C(=O)c2ccccc2C1=O (stereo not drawn) 107% (inactive)

# query: growth of entry CCCCCCCCCCCCCCCCCC1=NCCN1CCNC(C)=O 79.1% (inactive)

# query: growth of entry Cc1c(Cc2ccccc2)c(=O)oc2c(C)c(OCc3n[nH]c(=S)o3)ccc12 64.4% (inactive)

# query: growth of entry C[C@]12CC[C@H]3[C@@H](CC[C@H]4C[C@@H](O)CC[C@@]43C)[C@@H]1CC(=O)C2 97.6% (inactive)

# query: growth of entry COC(=O)c1ccc2[nH]c(O)c(C(=Nc3ccc(N(C)C(=O)CN4CCN(C)CC4)cc3)c3ccc(CCO)cc3)c2c1 31.3% (inactive)

# query: growth of entry COc1ccc(C(=O)NCCNc2nccc(-c3c(-c4ccc(F)cc4)nc4sccn34)n2)cc1 55.4% (inactive)

# query: growth of entry COC(=O)C(N)CC(C)C (stereo not drawn) 98% (inactive)

# query: growth of entry NC(=O)c1c(Nc2ccccc2)nn2cc(-c3nc4ccccc4s3)c(N)nc12 101% (inactive)

# query: growth of entry CCCNC(=O)Oc1ccc(/C(=C(/C)Cc2ccc(OC)cc2)c2ccc(OCCN3CCCCC3)cc2)cc1 69.9% (inactive)

# query: growth of entry CCc1ccc(C(=Nc2ccc(N(C)C(=O)CN3CCN(C)CC3)cc2)c2c(O)[nH]c3ccc(C(=O)OC)cc23)cc1 -75.1% (active)

# query: growth of entry COc1cc(N)c2nccc(C)c2c1OC 99.4% (inactive)

# query: growth of entry CC(C)OC(=O)[C@H](C)N[P@@](=O)(OC[C@@]1(C)O[C@@H](n2cc(F)c(N)nc2=O)C[C@@H]1O[P@](=O)(N[C@@H](C)C(=O)OC(C)C)Oc1ccccc1)Oc1ccccc1 93.2% (inactive)

# query: growth of entry C[C@@H](c1ccc2c(c1)[nH]c1ccc(Cl)cc12)c1nc2ccc(Cl)cc2[nH]1 92.1% (inactive)

# query: growth of entry CCC(C)(C)c1ccc(OCCCCCCN2CCN(c3ccc(C)c(Cl)c3)CC2)cc1 104% (inactive)

# query: growth of entry CCCCN(CCCC)CCCNc1c2c(nc3ccc(Cl)cc13)CCCC2 101% (inactive)

# query: growth of entry O=c1c2c(c3ccccc3n1-c1ccccc1)NC(=S)NC2c1ccccc1 (stereo not drawn) 107% (inactive)

# query: growth of entry COc1ccc(CNCCCN2C(=O)c3ccc4c5c(ccc(c35)C2=O)C(=O)N(CCCNCc2ccc(OC)c(OC)c2OC)C4=O)c(OC)c1OC -94.2% (active)

# query: growth of entry COc1cc(-c2nc3c(c(C)nc4c3nnn4-c3ccccc3)c(=O)o2)cc(OC)c1OC 111% (inactive)

# query: growth of entry COc1cc(/C(=C2/O[C@@H]([C@H]3COC(C)(C)O3)[C@H]3OC(C)(C)O[C@@H]23)c2ccc3c(c2)OCO3)cc(OC)c1OC 47.1% (inactive)
